- tgt: CIB1 and αIIb interaction (CIB1-GST : F-αIIb peptide) (Homo sapiens, UniProt Q99828)
- Construct: made in house; host or cells: BL-21 plus RIL cells (E. coli)
- run_description: FP assay, 1536-well qHTS format (primary and confirmatory screen)
- Assay type: binding
- experimental_context: qHTS primary screen of LOPAC/NPACT libraries; negative = inhibition
Where a SMILES comes first, the peptide text is derived from it. The star is where a group is joined. Cbz = O=C(OCc1ccccc1)*; CH2Cl = ClC*
Efficacy (%) below -20% gives Criterion not met; Efficacy (%) at or above it gives Criterion met.

Has CC1(CO)CCCC2(C)C1C(OC(=O)c1ccccc1)C=C1C(=O)OCC12O (stereo not shown) a recorded Efficacy (%) greater than or equal to -20%?
Criterion not met

Has O=C1Cc2c([nH]c3ccc(Br)cc23)-c2ccccc2N1 a recorded Efficacy (%) greater than or equal to -20%?
Criterion met

Has COc1ccc(S(=O)(=O)Nc2nc(-c3cccc([N+](=O)[O-])c3)cs2)cc1OC a recorded Efficacy (%) greater than or equal to -20%?
Criterion not met

Has COc1cc(N2CCC(N3CCN(C)CC3)CC2)ccc1Nc1ncc(Cl)c(Nc2ccccc2S(=O)(=O)C(C)C)n1 a recorded Efficacy (%) greater than or equal to -20%?
Criterion not met

Has CC(C)(O)CC(=O)NCCn1ccc2ncnc(Nc3ccc(Oc4cccc(C(F)(F)F)c4)c(Cl)c3)c21 a recorded Efficacy (%) greater than or equal to -20%?
Criterion not met

Has O=c1onc2cnc3ccccc3n12 a recorded Efficacy (%) greater than or equal to -20%?
Criterion not met

Has CC(C)N(CCC(=O)c1ccc2ccccc2c1)Cc1ccccc1.Cl a recorded Efficacy (%) greater than or equal to -20%?
Criterion not met

Has CN(C)c1ccc(NC(=O)NS(=O)(=O)c2ccc(Cl)cc2)cc1 a recorded Efficacy (%) greater than or equal to -20%?
Criterion not met

Has O=C1NCc2c1c1c3ccccc3[nH]c1c1[nH]c3ccccc3c21 a recorded Efficacy (%) greater than or equal to -20%?
Criterion not met

Has O=c1c(O)c(-c2ccc(O)cc2O)oc2cc(O)cc(O)c12 a recorded Efficacy (%) greater than or equal to -20%?
Criterion not met

Has COc1ccc(NC(=O)c2ccc(-c3ccc(-c4noc(C)n4)cc3C)cc2)cc1N1CCN(C)CC1.Cl a recorded Efficacy (%) greater than or equal to -20%?
Criterion met

Has CCOC(=O)C1=C(C)NC(C)=C(C(=O)OC)C1c1cccc([N+](=O)[O-])c1 (stereo not shown) a recorded Efficacy (%) greater than or equal to -20%?
Criterion not met

Has CC(C)C[C@H](NC(=O)CNC(=O)OCc1ccccc1)C(=O)N[C@@H](Cc1ccccc1)C(=O)CCl [NCGC00485375-01] (Cbz-Gly-Leu-Phe-CH2Cl) a recorded Efficacy (%) greater than or equal to -20%?
Criterion not met

Has CN(NC(=O)CC(=O)NN(C)C(=S)c1ccccc1)C(=S)c1ccccc1 a recorded Efficacy (%) greater than or equal to -20%?
Criterion not met

Has CC/C(=C(\c1ccc(O)cc1)c1ccc(OCCNC)cc1)c1ccccc1 a recorded Efficacy (%) greater than or equal to -20%?
Criterion not met

Has COC(=O)C1=C(C)NC(C)=C(C(=O)OCCN(C)Cc2ccccc2)C1c1cccc([N+](=O)[O-])c1.Cl (stereo not shown) a recorded Efficacy (%) greater than or equal to -20%?
Criterion met

Has CC1CC2(O)OC(=O)C3=C2C(CCC3)[C@@]12C[C@@H](c1ccoc1)OC2=O (stereo partly shown) a recorded Efficacy (%) greater than or equal to -20%?
Criterion not met

Has COc1cc(/C=C(\C#N)C(=O)Nc2nnc(C(F)(F)F)s2)ccc1OCc1ccc(C(F)(F)F)cc1C(F)(F)F a recorded Efficacy (%) greater than or equal to -20%?
Criterion met

Has C=C1C(=O)O[C@@H]2[C@H]3O[C@]3(C)CC/C=C(/C)CC[C@@H]12 a recorded Efficacy (%) greater than or equal to -20%?
Criterion met

Has CCCC1(CCC)CCC2(CCN(CCCN(CC)CC)C2)CC1.Cl a recorded Efficacy (%) greater than or equal to -20%?
Criterion not met

Has C=C1C(=O)O[C@H]2C3=C(C)CCC[C@]3(C)C(=O)C[C@@H]12 a recorded Efficacy (%) greater than or equal to -20%?
Criterion not met

Has CCOC(=O)Nc1ccc(NCc2ccc(F)cc2)nc1N.O=C(O)/C=C\C(=O)O a recorded Efficacy (%) greater than or equal to -20%?
Criterion not met

Has CCn1cc(C(=O)O)c(=O)c2ccc(C)nc21 a recorded Efficacy (%) greater than or equal to -20%?
Criterion met

Has C=C1CC(=O)C2OC2(C)CC2OC(=O)C(=C)C2C(O)C1OC(=O)/C(C)=C\C (stereo not shown) a recorded Efficacy (%) greater than or equal to -20%?
Criterion not met

Has COc1cc(NS(C)(=O)=O)ccc1Nc1c2ccccc2nc2ccccc12.Cl a recorded Efficacy (%) greater than or equal to -20%?
Criterion not met

Has Cc1nc2sccn2c(=O)c1CCN1CCC(=C(c2ccc(F)cc2)c2ccc(F)cc2)CC1 a recorded Efficacy (%) greater than or equal to -20%?
Criterion not met

Has COc1cc(Nc2cc(C#N)nc3cc(OCCCN4CCN(C)CC4)c(OC)cc23)c(Cl)cc1Cl a recorded Efficacy (%) greater than or equal to -20%?
Criterion not met

Has CCCOc1ccccc1-c1nc(=O)c2nn[nH]c2[nH]1 a recorded Efficacy (%) greater than or equal to -20%?
Criterion not met

----------
- tgt: CIB1 and αIIb interaction (CIB1-GST : F-αIIb peptide) (Homo sapiens)
- Construct: made in house; host or cells: BL-21 plus RIL cells (E. coli)
- Sequence (Q99828 1-191): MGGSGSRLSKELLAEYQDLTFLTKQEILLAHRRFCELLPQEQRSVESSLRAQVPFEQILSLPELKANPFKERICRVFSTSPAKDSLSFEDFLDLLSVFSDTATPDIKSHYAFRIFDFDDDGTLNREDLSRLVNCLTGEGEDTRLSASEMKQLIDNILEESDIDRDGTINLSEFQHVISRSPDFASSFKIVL
- run_description: FP assay, 1536-well qHTS format (primary and confirmatory screen)
- Type: binding
- experimental_context: confirmatory screen; negative = inhibition
Kindly supply the reported CONFIRMATORY SCREEN Efficacy (%) values for the records listed here.
Give a bare numeral; the unit % is implied.

Looking up O=C(O)C1=NC(C(=O)O)CC(/C=C/N2c3cc(O)c(OC4OC(CO)C(O)C(O)C4O)cc3CC2C(=O)O)=C1 (stereo not shown) , I found its CONFIRMATORY SCREEN Efficacy (%) recorded as -66

Looking up Br.CCCCCCCCCCCCCCCC[N+](C)(C)C.[Br-] , I found its CONFIRMATORY SCREEN Efficacy (%) recorded as -114

Looking up Cc1ccc(-c2cc(-c3nn(-c4nc(C(=O)O)cs4)c(CC4CC4)c3Cc3ccc(S(N)(=O)=O)c(F)c3)ccc2F)o1 , I found its CONFIRMATORY SCREEN Efficacy (%) recorded as -77

Looking up O=C(c1cccs1)c1no[n+]([O-])c1C(=O)c1cccs1 , I found its CONFIRMATORY SCREEN Efficacy (%) recorded as -40

Looking up Cc1cc(S(=O)(=O)Nc2cnccc2C(=O)Nc2nc(-c3ccccc3)cs2)c(C)o1.O=C(O)C(F)(F)F , I found its CONFIRMATORY SCREEN Efficacy (%) recorded as -83

Looking up CCOC(=O)c1c(NC(=O)C2CC(Cl)=CCC2C(=O)O)sc2c1CCCCC2.O=C(O)C(F)(F)F (stereo not shown) , I found its CONFIRMATORY SCREEN Efficacy (%) recorded as -59

Looking up O=C(Nc1nc(-c2ccccc2)cs1)c1ccncc1NS(=O)(=O)c1ccc(Cl)cc1.O=C(O)C(F)(F)F , I found its CONFIRMATORY SCREEN Efficacy (%) recorded as -69

----------
Kindly supply the reported solubility values for the records listed here.
- run_description: In vitro ADME: solubility
- Format: physicochemical
- experimental_context: read-out: Solubility

Looking up O=C(O)C(F)(F)F.O=C(c1ccc(F)cc1)c1no[n+]([O-])c1C(=O)c1ccc(F)cc1 , I found its solubility recorded as > 49 µg/mL

Looking up O=C(c1ccc(C(F)(F)F)cc1)c1no[n+]([O-])c1C(=O)c1ccc(C(F)(F)F)cc1 , I found its solubility recorded as > 64 µg/mL

Looking up O=C(c1ccc(-c2ccccc2)cc1)c1no[n+]([O-])c1C(=O)c1ccc(-c2ccccc2)cc1 , I found its solubility recorded as 1 µg/mL

Looking up O=C(c1ccccc1C(F)(F)F)c1no[n+]([O-])c1C(=O)c1ccccc1C(F)(F)F , I found its solubility recorded as < 1 µg/mL

meta.source: paper PMC11249646
